- Tested on: LNCaP cells
- Assay explanation: Proliferation assay with LNCaP cells
- Format: cell-based
- Cond: Homo sapiens, 168 h, in the presence of 1×10^−10 M R1881, seven days, AlamarBlue, read-out: IC50 LNCaP cell proliferation
Outcome measure: IC50 (nM)

> print(dat)
                               query.smiles  assay.value
1  O=C(N[C@H]1CC[C@H](Oc2ccnc3ccccc23)CC1)c1ccc(F)c(F)c1           99
2  N#Cc1cccc2c(O[C@H]3CC[C@H](NC(=O)c4cccc(F)c4)CC3)ccnc12           28
3  N#Cc1ccc(C(=O)NC[C@H]2CC[C@H](Oc3ccnc4ccccc34)CC2)cc1           87
4  O=C(NC[C@H]1CC[C@H](Oc2ccnc3c(F)cccc23)CC1)c1ccno1          390

----------
- Tested on: LNCaP cells
- Assay explanation: Proliferation assay with LNCaP cells
- Assay type: cell-based
- Cond: Homo sapiens, 168 h, in the presence of 1×10^−10 M R1881, seven days, AlamarBlue, read-out: IC50 LNCaP cell proliferation
pIC50: −log10 of the molar value.
In this section we review reported pIC50 values for a set of molecules.
Outcome measure: pIC50

> print(dat)
                               query.smiles  assay.value
1  O=C(NC[C@H]1CC[C@H](Oc2ccnc3c(F)cccc23)CC1)c1cc[nH]n1         5.95
2  O=C(N[C@H]1CC[C@H](Oc2ccnc3ccccc23)CC1)c1cccc(F)c1         6.96
3  Cc1cc(C(=O)NC[C@H]2CC[C@H](Oc3ccnc4ccccc34)CC2)no1         6.59
4  N#Cc1cccc2c(O[C@H]3CC[C@H](NC(=O)c4ccc(F)cc4)CC3)ccnc12         6.63

----------
- System: LNCaP cells
- Assay explanation: Proliferation assay with LNCaP cells
- Assay type: cell-based
- Cond: Homo sapiens, 168 h, in the presence of 1×10^−10 M R1881, seven days, AlamarBlue, read-out: IC50 LNCaP cell proliferation
Outcome measure: IC50 (nM)

> print(dat)
                                    compound  outcome.measure  assay.value
 1  Cc1ccc(C(=O)N[C@H]2CC[C@H](Oc3ccnc4c(C#N)cccc34)CC2)cc1F [Example 28]             IC50           51
 2  Cc1cc(C(=O)NC[C@H]2CC[C@H](Oc3ccnc4c(F)cccc34)CC2)no1 [Example 7]             IC50           97
 3  Cc1nocc1C(=O)NC[C@H]1CC[C@H](Oc2ccnc3c(F)cccc23)CC1 [Example 4]             IC50          250
 4  N#Cc1ccc(C(=O)N[C@H]2CC[C@H](Oc3ccnc4c(Br)cccc34)CC2)cc1 [Example 15]             IC50          190
 5  N#Cc1cccc2c(O[C@H]3CC[C@H](CNC(=O)c4ccon4)CC3)ccnc12 [Example 31]             IC50          730
 6  O=C(NC[C@H]1CC[C@H](Oc2ccnc3c(F)cccc23)CC1)c1ccc(F)cc1 [Example 1]             IC50          170
 7  N#Cc1cccc2c(O[C@H]3CC[C@H](NC(=O)c4cc(F)cc(F)c4)CC3)ccnc12 [Example 30]             IC50           30
 8  Cc1cc(C(=O)NC[C@H]2CC[C@H](Oc3ccnc4c(C#N)cccc34)CC2)no1 [Example 32]             IC50          560
 9  N#Cc1cccc2c(O[C@H]3CC[C@H](NC(=O)c4ccc(Cl)c(F)c4)CC3)ccnc12 [Example 29]             IC50           29
10  O=C(NC[C@H]1CC[C@H](Oc2ccnc3c(F)cccc23)CC1)c1ccon1 [Example 6]             IC50           21

----------
In this section we review reported pIC50 values for a set of molecules.
- Tested system: androgen receptor mutant W741C (Homo sapiens (Human), UniProt P10275, W742C)
- Sequence (P10275 whole entry W742C): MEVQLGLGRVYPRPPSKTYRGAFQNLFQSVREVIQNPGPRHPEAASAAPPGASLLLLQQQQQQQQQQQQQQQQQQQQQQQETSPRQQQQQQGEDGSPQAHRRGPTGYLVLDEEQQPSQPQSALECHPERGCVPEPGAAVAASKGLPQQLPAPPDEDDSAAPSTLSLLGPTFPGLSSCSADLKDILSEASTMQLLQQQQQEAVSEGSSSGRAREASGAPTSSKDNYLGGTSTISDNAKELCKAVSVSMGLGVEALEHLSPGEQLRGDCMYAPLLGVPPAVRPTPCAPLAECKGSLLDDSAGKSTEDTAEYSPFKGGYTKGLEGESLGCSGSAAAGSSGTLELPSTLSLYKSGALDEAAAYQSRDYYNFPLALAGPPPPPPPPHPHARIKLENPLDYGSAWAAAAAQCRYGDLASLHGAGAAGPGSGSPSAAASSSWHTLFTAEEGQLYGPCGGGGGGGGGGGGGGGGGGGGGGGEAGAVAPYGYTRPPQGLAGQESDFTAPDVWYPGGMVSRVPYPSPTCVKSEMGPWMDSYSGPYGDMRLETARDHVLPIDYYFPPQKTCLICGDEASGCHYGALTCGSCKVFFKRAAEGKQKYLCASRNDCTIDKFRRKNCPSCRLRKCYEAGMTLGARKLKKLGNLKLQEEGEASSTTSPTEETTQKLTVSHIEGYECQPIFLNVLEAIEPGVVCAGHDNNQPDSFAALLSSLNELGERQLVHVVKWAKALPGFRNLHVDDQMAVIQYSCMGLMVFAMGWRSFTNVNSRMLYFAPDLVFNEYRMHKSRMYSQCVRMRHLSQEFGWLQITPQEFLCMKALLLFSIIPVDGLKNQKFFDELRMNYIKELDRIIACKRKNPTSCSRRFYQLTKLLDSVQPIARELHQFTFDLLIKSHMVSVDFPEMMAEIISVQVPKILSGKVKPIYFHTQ
- Assay explanation: Transactivation assay for the androgen receptor mutant W741C (transfected PC-3 cells)
- Cond: in the presence of 1×10^−10 M R1881, 24 hours
- Procedure: PC-3 cells (Kaighn et al., Invest. Urol. 17: 16-23, 1979) were plated out at a density of 10000 cells per well of a 96-well cell culture plate in RMPI 1640 medium (F1235, Biochrom AG, Berlin, Germany), which contained activated charcoal-treated calf serum (FCS Serum Gold, PAA Laboratories) at a concentration of 5% (v/v). […] The IC50 value was determined by regression analysis based on a four-parameter equation (minimum, maximum, IC50, Hill coefficient; Y=Max+(Min−Max)/(1+(X/IC50)^Hill)).
pIC50: −log10 of the molar value.
Outcome measure: pIC50

> print(dat)
                                   molecule  outcome.measure  assay.value
1  O=C(NC[C@H]1CC[C@H](Oc2ccnc3ccccc23)CC1)c1cccc(F)c1 [Example 10]            pIC50         6.66
2  N#Cc1cccc2c(O[C@H]3CC[C@H](NC(=O)c4cccc(F)c4)CC3)ccnc12 [Example 23]            pIC50         7.52
3  N#Cc1cccc2c(O[C@H]3CC[C@H](NC(=O)c4ccc(F)c(F)c4)CC3)ccnc12 [Example 24]            pIC50         7.14
4  O=C(NC[C@H]1CC[C@H](Oc2ccnc3ccccc23)CC1)c1ccc(F)c(F)c1 [Example 9]            pIC50         7.14

----------
- Tested system: androgen receptor mutant E709Y (Homo sapiens (Human), UniProt P10275, E710Y)
- Sequence (P10275 whole entry E710Y): as the sequence (P10275 whole entry W742C) above, with E710Y, C742W counted along it
- Assay explanation: Transactivation assay for the androgen receptor mutant E709Y (transfected PC-3 cells)
- Cond: in the presence of 1×10^−10 M R1881, 24 hours
pIC50: −log10 of the molar value.
Outcome measure: pIC50

> print(dat)
                               query.smiles  outcome.measure  assay.value
1  N#Cc1cccc2c(O[C@H]3CC[C@H](NC(=O)c4ccc(F)c(F)c4)CC3)ccnc12            pIC50         7.85
2  N#Cc1cccc2c(O[C@H]3CC[C@H](NC(=O)c4cccc(F)c4)CC3)ccnc12            pIC50         8.05
3  O=C(NC[C@H]1CC[C@H](Oc2ccnc3ccccc23)CC1)c1cccc(F)c1            pIC50         6.76
4  O=C(NC[C@H]1CC[C@H](Oc2ccnc3ccccc23)CC1)c1ccc(F)c(F)c1            pIC50         7.25

----------
- Tested system: human androgen receptor (full length, wild-type form) (Homo sapiens (Human), UniProt P10275)
- Sequence (P10275 whole entry): as the sequence (P10275 whole entry W742C) above, with C742W counted along it
- Assay explanation: Transactivation assay for the wild-type androgen receptor (PC-3 cells, MMTV-luciferase reporter)
- Cond: in the presence of R1881, 16 hours
pIC50: −log10 of the molar value.
Outcome measure: pIC50

> print(dat)
                                    compound  outcome.measure  assay.value
 1  O=C(N[C@H]1CC[C@H](Oc2ccnc3c(Br)cccc23)CC1)c1ccc(F)cc1 [Example 17]            pIC50         6.32
 2  Cc1cc(C(=O)NC[C@H]2CC[C@H](Oc3ccnc4ccccc34)CC2)no1 [Example 11]            pIC50         6.68
 3  O=C(NC[C@H]1CC[C@H](Oc2ccnc3c(Br)cccc23)CC1)c1ccon1 [Example 21]            pIC50         6.20
 4  Cc1nocc1C(=O)NC[C@H]1CC[C@H](Oc2ccnc3c(F)cccc23)CC1 [Example 4]            pIC50         6.68
 5  Cc1cc(C(=O)NC[C@H]2CC[C@H](Oc3ccnc4c(Br)cccc34)CC2)no1 [Example 20]            pIC50         6.16
 6  N#Cc1cccc2c(O[C@H]3CC[C@H](NC(=O)c4ccc(F)cc4)CC3)ccnc12 [Example 25]            pIC50         6.85
 7  N#Cc1cccc2c(O[C@H]3CC[C@H](NC(=O)c4cc(F)cc(F)c4)CC3)ccnc12 [Example 30]            pIC50         7.41
 8  O=C(NC[C@H]1CC[C@H](Oc2ccnc3c(F)cccc23)CC1)c1ccc(F)cc1 [Example 1]            pIC50         6.62
 9  N#Cc1ccc(C(=O)NC[C@H]2CC[C@H](Oc3ccnc4ccccc34)CC2)cc1 [Example 22]            pIC50         6.48
10  N#Cc1cccc2c(O[C@H]3CC[C@H](NC(=O)c4ccc(F)c(Cl)c4)CC3)ccnc12 [Example 27]            pIC50         7.17
11  O=C(N[C@H]1CC[C@H](Oc2ccnc3c(Br)cccc23)CC1)c1ccc(F)c(Cl)c1 [Example 18]            pIC50         6.72
12  O=C(NC[C@H]1CC[C@H](Oc2ccnc3c(F)cccc23)CC1)c1ccon1 [Example 6]            pIC50         6.13
13  N#Cc1ccc(C(=O)N[C@H]2CC[C@H](Oc3ccnc4c(Br)cccc34)CC2)cc1 [Example 15]            pIC50         6.58
14  O=C(N[C@H]1CC[C@H](Oc2ccnc3ccccc23)CC1)c1ccc(F)c(F)c1 [Example 3]            pIC50         7.35
15  N#Cc1cccc2c(O[C@H]3CC[C@H](NC(=O)c4cccc(F)c4)CC3)ccnc12 [Example 23]            pIC50         7.28
16  Cc1ccc(C(=O)N[C@H]2CC[C@H](Oc3ccnc4c(Br)cccc34)CC2)cc1F [Example 14]            pIC50         7.17
17  O=C(N[C@H]1CC[C@H](Oc2ccnc3c(Br)cccc23)CC1)c1ccc(F)c(F)c1 [Example 13]            pIC50         6.77
18  N#Cc1cccc2c(O[C@H]3CC[C@H](NC(=O)c4ccc(Cl)c(F)c4)CC3)ccnc12 [Example 29]            pIC50         7.21
19  N#Cc1cccc2c(O[C@H]3CC[C@H](CNC(=O)c4ccon4)CC3)ccnc12 [Example 31]            pIC50         6.14
20  O=C(NC[C@H]1CC[C@H](Oc2ccnc3c(F)cccc23)CC1)c1cc[nH]n1 [Example 8]            pIC50         6.38
21  Cc1cc(C(=O)NC[C@H]2CC[C@H](Oc3ccnc4c(F)cccc34)CC2)no1 [Example 7]            pIC50         6.32
22  Cc1ccc(C(=O)N[C@H]2CC[C@H](Oc3ccnc4c(C#N)cccc34)CC2)cc1F [Example 28]            pIC50         7.35
23  Cc1cc(C(=O)NC[C@H]2CC[C@H](Oc3ccnc4c(C#N)cccc34)CC2)no1 [Example 32]            pIC50         6.19
24  O=C(NC[C@H]1CC[C@H](Oc2ccnc3ccccc23)CC1)c1cccc(F)c1 [Example 10]            pIC50         6.71
25  O=C(N[C@H]1CC[C@H](Oc2ccnc3ccccc23)CC1)c1cccc(F)c1 [Example 19]            pIC50         7.49
26  O=C(NC[C@H]1CC[C@H](Oc2ccnc3c(F)cccc23)CC1)c1ccno1 [Example 5]            pIC50         6.34
27  O=C(NC[C@H]1CC[C@H](Oc2ccnc3ccccc23)CC1)c1ccc(F)c(F)c1 [Example 9]            pIC50         6.98
28  O=C(N[C@H]1CC[C@H](Oc2ccnc3c(Br)cccc23)CC1)c1ccc(C(F)(F)F)c(F)c1 [Example 16]            pIC50         6.33
29  O=C(N[C@H]1CC[C@H](Oc2ccnc3c(Br)cccc23)CC1)c1cccc(F)c1 [Example 12]            pIC50         7.03
30  Cc1cc(C(=O)N[C@H]2CC[C@H](Oc3ccnc4c(C#N)cccc34)CC2)no1 [Example 26]            pIC50         7.74
31  N#Cc1cccc2c(O[C@H]3CC[C@H](NC(=O)c4ccc(F)c(F)c4)CC3)ccnc12 [Example 24]            pIC50         7.04
32  Cc1cc(C(=O)N[C@H]2CC[C@H](Oc3ccnc4c(Br)cccc34)CC2)no1 [Example 2]            pIC50         7.70
